tested on: DLD-1 colon; experiment: NCI tumour cell line growth inhibition, 48 h
// reported TGI for each item listed

molecule "Cc1c2cc[n+](C)cc2c(C)c2c1[nH]c1ccc(Cl)cc12" , TGI observed: > 100 µM

====

tested on: SW-620 colon; test: NCI tumour cell line growth inhibition, 48 h
READOUT: GI50

CCn1c(-c2nonc2N)nc2cncc(C(=O)NCCNC)c21    4.07 µM

molecule "O=C(CN1C(=O)S/C(=C\C(Cl)=C\c2ccccc2)C1=O)NCCc1ccc(O)cc1" , GI50 observed: 1.82 µM

molecule "COc1cccc(Cn2c(-c3nonc3NC(C)=O)nc3ccccc32)c1" , GI50 observed: 3.08 µM
